Tested on: SK-MEL-5 melanoma
assay-protocol: NCI tumour cell line growth inhibition, 48 h
TGI reference
result-type: TGI (µM)

# compound, unit-name, comparison-symbol, quantitative-readout
records = [
    ("O=C(Nc1ccccc1C(=O)NCc1ccccc1)/C(=C/c1ccccc1O)NC(=O)c1ccccc1", "µM", ">", 100),
    ("O=C(CSSCC(=O)c1ccc(Cl)cc1)c1ccc(Cl)cc1", "µM", "=", 10.5),
    ("O=[N+]([O-])c1ccc2c(c1)nc1n2C(c2c(F)cccc2F)SC1 (stereo not given)", "µM", ">", 100),
    ("COc1cc(C[C@@]2(C)[C@@H]3CCC[C@H](CO)[C@@]3(C)CC[C@@H]2C)c(Cl)c(OC)c1", "µM", "=", 31.8),
    ("COc1cc(C[C@H]2COC(=O)[C@]2(O)Cc2ccc(OCc3ccccc3)c(OC)c2)ccc1OCc1ccccc1", "µM", "=", 37.1),
]

###

Test system: HCT-15 colon
assay-protocol: NCI tumour cell line growth inhibition, 48 h; in the data active means GI50 below about 0.43 µM; inactive means the rest
Outcome codes: YES (active), NO (inactive)

# molecule, category
records = [
    ("COc1cc(C[C@H]2COC(=O)[C@]2(O)Cc2ccc(OCc3ccccc3)c(OC)c2)ccc1OCc1ccccc1", "NO"),
    ("COc1ccc(CCN2CCCn3c2nc2ccccc2c3=O)cc1", "YES"),
    ("CNc1c2ccccc2nc2occ(Cl)c12", "NO"),
    ("COc1ccc(-c2cn(C)c3c2-n2cccc2C3=O)cc1O", "NO"),
    ("CNC(=O)[C@H](Cc1c[nH]c2ccccc12)NC(=O)[C@@H](CC(=O)NO)CC(C)C", "NO"),
    ("COc1ccc(-n2nc(C)c3c(Nc4ccc(NC(=O)Nc5cccc(C(F)(F)F)c5)cc4)ncnc32)cc1", "NO"),
    ("CC(C)(C)OC(=O)NCCCCCCCCCn1c2c(c3ccccc3c1=O)C(=O)c1ccccc1-2", "NO"),
    ("CN(C)S(=O)(=O)c1cccc(C(=O)Nc2nc(-c3ccc(F)c(F)c3)cs2)c1", "NO"),
    ("COc1ccc(-n2cc(-c3cc(OC)c(OC)c(OC)c3)nc2SCc2cccc(C#N)c2)cc1OC", "NO"),
    ("N#CC1=C(N)NC(=O)C(C#N)C12Nc1ccccc1S2 (stereo unspecified)", "NO"),
    ("Nc1[nH]nc(Nc2ccccc2)c1-c1nc2ccccc2s1", "NO"),
]

###

Test system: M14 melanoma
assay-protocol: NCI tumour cell line growth inhibition, 48 h; in the data active = GI50 below about 0.43 µM; inactive = the rest
Labels: active, inactive

# record-smiles, category
rows = [
    ("CNc1c2ccccc2nc2occ(Cl)c12", "inactive"),
    ("O=[N+]([O-])c1ccccc1/C=N\\NC(=S)N/N=C/c1ccccc1[N+](=O)[O-]", "inactive"),
    ("COc1ccc(Cn2cc3c(c2-c2ccccc2)CCc2cnoc2-3)cc1", "active"),
    ("COc1ccc(C2=C(c3ccc(OC)cc3)C(=O)OC2)cc1", "inactive"),
    ("ClCCCN1CCN(CCCl)CC1", "inactive"),
    ("Nc1[nH]nc(Nc2ccccc2)c1-c1nc2ccccc2s1", "inactive"),
    ("O=C(c1ccc(Cl)cc1Cl)N1CCN(C(=O)c2ccc(Cl)cc2Cl)C1=S", "inactive"),
    ("CCN(Cc1ccc(Cl)c(Cl)c1)c1ccc2nc(N)nc(N)c2c1C", "active"),
    ("COc1ccc(-c2cn(C)c3c2-n2cccc2C3=O)cc1O", "inactive"),
    ("CC(C)(C)OC(=O)NCCCCCCCCCn1c2c(c3ccccc3c1=O)C(=O)c1ccccc1-2", "inactive"),
    ("CCCC(=O)Oc1ccc(/C(=C(\\C)c2ccc(Cl)cc2)c2ccc(OCCN(CC)CC)cc2)cc1", "inactive"),
]
